AUC25 for assorted compounds
- Tested on: Mycobacterium tuberculosis Erdman (autoluminescent)
- experiment.summary: AUC25, normalised area under dose response up to IC25 (three-drug combination) (fraction (0-1)); higher = more potent at low dose
- condition.set: in vitro model: cholesterol-high 0.2 mM; time point: terminal (~4-5 doublings, model-specific)
Lab note: jot down the number only; don't add units.

* NNC(=O)c1ccncc1 [isoniazid] + CC(=O)NC[C@H]1CN(c2ccc(N3CCOCC3)c(F)c2)C(=O)O1 [linezolid] + CO[C@H]1/C=C/O[C@@]2(C)Oc3c(C)c(O)c4c(O)c(c(/C=N/N5CCN(C)CC5)c(O)c4c3C2=O)NC(=O)/C(C)=C\C=C\[C@H](C)[C@H](O)[C@@H](C)[C@@H](O)[C@@H](C)[C@H](OC(C)=O)[C@@H]1C [rifampicin] | 0.0902
* COc1nc2ccc(Br)cc2cc1[C@@H](c1ccccc1)[C@@](O)(CCN(C)C)c1cccc2ccccc12 [bedaquiline] + CC(=O)NC[C@H]1CN(c2ccc(N3CCOCC3)c(F)c2)C(=O)O1 [linezolid] + COc1c(N2C[C@@H]3CCCN[C@@H]3C2)c(F)cc2c(=O)c(C(=O)O)cn(C3CC3)c12 [moxifloxacin] | 0.108
* COc1nc2ccc(Br)cc2cc1[C@@H](c1ccccc1)[C@@](O)(CCN(C)C)c1cccc2ccccc12 [bedaquiline] + COc1c(N2C[C@@H]3CCCN[C@@H]3C2)c(F)cc2c(=O)c(C(=O)O)cn(C3CC3)c12 [moxifloxacin] + CO[C@H]1/C=C/O[C@@]2(C)Oc3c(C)c(O)c4c(O)c(c(/C=N/N5CCN(C)CC5)c(O)c4c3C2=O)NC(=O)/C(C)=C\C=C\[C@H](C)[C@H](O)[C@@H](C)[C@@H](O)[C@@H](C)[C@H](OC(C)=O)[C@@H]1C [rifampicin] | 0.0547

Prompt: Need AUC25, item CC[C@@H](CO)NCCN[C@@H](CC)CO [ethambutol] + NNC(=O)c1ccncc1 [isoniazid] + CO[C@H]1/C=C/O[C@@]2(C)Oc3c(C)c(O)c4c(O)c(c(/C=N/N5CCN(C)CC5)c(O)c4c3C2=O)NC(=O)/C(C)=C\C=C\[C@H](C)[C@H](O)[C@@H](C)[C@@H](O)[C@@H](C)[C@H](OC(C)=O)[C@@H]1C [rifampicin]
Response: 0.0525

Prompt: Moving on to the next compound: CC(=O)NC[C@H]1CN(c2ccc(N3CCOCC3)c(F)c2)C(=O)O1 [linezolid] + O=[N+]([O-])c1cn2c(n1)OC[C@@H](OCc1ccc(OC(F)(F)F)cc1)C2 [pretomanid] + NC(=O)c1cnccn1 [pyrazinamide]
Response: 0.113

Prompt: Moving on to the next compound: NNC(=O)c1ccncc1 [isoniazid] + COc1c(N2C[C@@H]3CCCN[C@@H]3C2)c(F)cc2c(=O)c(C(=O)O)cn(C3CC3)c12 [moxifloxacin] + O=[N+]([O-])c1cn2c(n1)OC[C@@H](OCc1ccc(OC(F)(F)F)cc1)C2 [pretomanid]
Response: 0.0578

* * *

GRinf for assorted molecules
- Tested on: Mycobacterium tuberculosis Erdman (autoluminescent)
- experiment.summary: GRinf, maximum normalised growth rate inhibition (three-drug combination) (unitless (-1 to 1)); higher = less effect (negative = killing)
- condition.set: in vitro model: standard 7H9 glycerol; time point: constant = terminal
Lab note: jot down the number only; don't add units.

# example entries with known answers
* NNC(=O)c1ccncc1 [isoniazid] + COc1c(N2C[C@@H]3CCCN[C@@H]3C2)c(F)cc2c(=O)c(C(=O)O)cn(C3CC3)c12 [moxifloxacin] + NC(=O)c1cnccn1 [pyrazinamide] | -0.168
* NNC(=O)c1ccncc1 [isoniazid] + CC(=O)NC[C@H]1CN(c2ccc(N3CCOCC3)c(F)c2)C(=O)O1 [linezolid] + CO[C@H]1/C=C/O[C@@]2(C)Oc3c(C)c(O)c4c(O)c(c(/C=N/N5CCN(C)CC5)c(O)c4c3C2=O)NC(=O)/C(C)=C\C=C\[C@H](C)[C@H](O)[C@@H](C)[C@@H](O)[C@@H](C)[C@H](OC(C)=O)[C@@H]1C [rifampicin] | 0.148

Attention now turns to another entry.
Prompt: Need GRinf, item CC[C@@H](CO)NCCN[C@@H](CC)CO [ethambutol] + CC(=O)NC[C@H]1CN(c2ccc(N3CCOCC3)c(F)c2)C(=O)O1 [linezolid] + CO[C@H]1/C=C/O[C@@]2(C)Oc3c(C)c(O)c4c(O)c(c(/C=N/N5CCN(C6CCCC6)CC5)c(O)c4c3C2=O)NC(=O)/C(C)=C\C=C\[C@H](C)[C@H](O)[C@@H](C)[C@@H](O)[C@@H](C)[C@H](OC(C)=O)[C@@H]1C [rifapentine]
Response: 0.155

# credit: the supplement of paper PMC8617591
